biological target: purified B (bound) anti-MBP from MS brain tissue; assay: liquid-phase competitive inhibition + solid-phase RIA on human MBP (FIG. 10)
PROPERTY: percent inhibition

BINDER | READOUT VALUE
KSHGRTQDENPVVHFFKNIVT [synthetic peptide MBP75-95 (Example 2 and later)] | 100%
NPVVHFFKNI [decapeptide MBP84-93] | > 80%
PVVHFFKNIV [decapeptide MBP85-94] | > 80%
VHFFKNIVTP [decapeptide MBP87-96] | > 80%
VVHFFKNIVT [decapeptide MBP86-95] | > 80%

Taken from patent US7368429B2.
